Cited source for all entries: the supplement of paper PMC10567573

B1: TSPAN10 (parent)
chain: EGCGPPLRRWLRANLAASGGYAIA

# Variants of: B1
# Experimental details: protein stability index of a GFP-peptide fusion (GPS, HEK-293T) (PSI 1-6); higher = more stable;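 further: lentivirally expressed fusions sorted by FACS into six bins by GFP to DsRed ratio, PSI derived from sequencing read proportions per bin multiplied by bin number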
# Condition set: c terminus: a fixed tail appended
Experimental endpoint: protein stability index
The answer should be a number; do not append a unit.

Previously resolved entries follow.
1) G2T :: 1.83
2) C3F :: 1.61
3) A16H :: 2.13

Input R8I . Output protein stability index: 2.1

Input L7F . Output protein stability index: 1.4

Input A24M . Output protein stability index: 1.93

Input L11D . Output protein stability index: 2.12

Input P6H . Output protein stability index: 1.62

Input G19C . Output protein stability index: 1.46

Input G19N . Output protein stability index: 2.13

Input G4E . Output protein stability index: 1.98

Input G2P . Output protein stability index: 1.85

Input G20D . Output protein stability index: 2.25
